Can you tell me pKd for the items I'm about to list?
Experimental System: T1, biotinylated recombinant human FAP (human, UniProt Q12884 26-760, biotinylated)
T1 construct: also called biotinylated human FAP
Experimental Details: SPR (Biacore)
Answers are plain numbers, as −log10 of the molar value.

Please review the following examples before continuing.
Binder	pKd
P1AE1693_Fab, humanized anti-FAP clone 212 variant VH1G2a/VL1G2a (Fab, V domains shown, Fab) VH: QVQLVQSGAEVKKPGASVKVSCKASGYTLTDYNMDWVRQAPGKSLEWIGDIYPNTGGTIYNQKFKGRVTMTIDKSTSTVYMELSSLRSEDTAVYYCTRFRGIHYAMDYWGQGTTVTVSS VL: EIVLTQSPATLSLSPGERATLSCRASESVDNYGLSFINWFQQKPGQPPRLLIYGTSNRGSGIPARFSGSGSGTDFTLTISSLEPEDFAVYFCQQSNEVPYTFGGGTKVEIK	9.87
P1AE1702_Fab, humanized anti-FAP clone 212 variant with VL2G2a (Fab, V domains shown, Fab) VH: EVQLLESGGGLVQPGGSLRLSCAASGYTLTDYNMDWVRQAPGKGLEWVGDIYPNTGGTIYNQKFKGRFTISIDKSKNTAYLQMNSLRAEDTAVYYCTRFRGIHYAMDYWGQGTTVTVSS VL: DIQMTQSPSSLSASVGDRVTITCRASESVDNYGLSFINWFQQKPGQPPKLLIYGTSNRGSGVPSRFSGSGSGTDFTLTISSLQPEDFAMYFCQQSNEVPYTFGGGTKVEIK	9.67
P1AE1690_Fab, humanized anti-FAP clone 212 variant VH1G2a/VL1G1a (Fab, V domains shown, Fab) VH: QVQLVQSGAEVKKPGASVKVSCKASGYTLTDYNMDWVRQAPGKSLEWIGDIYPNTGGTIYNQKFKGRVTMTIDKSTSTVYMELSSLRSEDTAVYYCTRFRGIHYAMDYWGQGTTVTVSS VL: EIVLTQSPATLSLSPGERATLSCRASESVDNYGLSFINWFQQKPGQAPRLLIYGTSNRGSGIPARFSGSGSGTDFTLTISSLEPEDFAVYFCQQSNEVPYTFGGGTKVEIK	9.94

Okay, now this binder:
Reported pKd ( P1AE1689_Fab, humanized anti-FAP clone 212 variant VH1G1a/VL1G1a (Fab, V domains shown, Fab) VH: QVQLVQSGAEVKKPGASVKVSCKASGYTLTDYNMDWVRQAPGQGLEWIGDIYPNTGGTIYNQKFKGRVTMTIDTSTSTVYMELSSLRSEDTAVYYCTRFRGIHYAMDYWGQGTTVTVSS VL: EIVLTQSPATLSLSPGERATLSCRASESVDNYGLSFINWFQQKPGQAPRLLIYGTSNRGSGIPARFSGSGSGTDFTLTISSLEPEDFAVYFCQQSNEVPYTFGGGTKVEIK ) = 10.02
